Test system: HT-29
Assay: NCI tumour cell line growth inhibition, 48 h
The source made the active and inactive calls. Rule as the data show it: active = GI50 up to about 1.1 µM and inactive = higher.
parameterMeasured: GI50

Below: 2 molecules and their reported GI50.
[[record]]
molecule = "N#CCN(CC#N)C1CC=CCC1N(CC#N)CC#N (stereo not given)"
testedsystem = "HT-29"
endpointresult = "> 100 µM (inactive)"

[[record]]
molecule = "CN(C)c1ccc(/C=C2\\N=C(N/N=C/c3ccc(N(C)C)cc3)NC2=O)cc1"
testedsystem = "HT-29"
endpointresult = "42.7 µM (inactive)"


Note down GI50 recorded for N[C@H]1c2c(Br)sc(Br)c2C(=O)[C@H]1O 11.2 µM (inactive)

Please give measured GI50 of the following entry: CC1C(=O)OC2CC[N+]3([O-])CC=C(COC(=O)C(C)(O)C1(C)O)C23 (stereo not given) > 100 µM (inactive)

Write down GI50 measured for item O=C1C2=C(CC3=C(C2)CS(=O)(=O)C3)C(=O)C2=C1CC1=C(C2)CS(=O)(=O)C1 8.59 µM (inactive)

Given the molecule CCOC(=O)CN.CCOC(=O)Nc1ccc(S(=O)(=O)OC)cc1.CCOC(=O)Nc1ccc(S(=O)(=O)OC)cc1 , write its reported GI50. > 50 µM (inactive)

Answer with the recorded GI50 for the molecule listed here: C=CCSC1=N/C(=C\c2ccc(OC)cc2)C(=O)N1CC=C 20.2 µM (inactive)

Look up and report measured GI50 for this entry: Cc1ccc(C2(O)CC(c3ccc([N+](=O)[O-])o3)=NN2C(=O)COc2ccccc2Cl)cc1 (stereo not given) 4.21 µM (inactive)

Give the reported GI50 for this molecule. O=C1C=CC(=O)N1n1c(-c2ccccc2)n[nH]c1=O > 100 µM (inactive)

Please report GI50 for the following molecule: c1ccc2c(c1)[nH]c1c2ncc2[nH]c3ccccc3c21 2.88 µM (inactive)
